Catalogue of compounds with associated activity
Assay: caspase-8 TRAIL sensitization, hit retest, confirmation, cell-based, NB7+caspase-8, with/without TRAIL, luminescence panel (AID 651596)
Conditions: NB7 neuroblastoma + caspase-8, without TRAIL, luminescence viability, without TRAIL, mean of runs, at 10 µM

{"columns": ["compound", "quantity.unit", "activity"],
 "data": [
  ["CC(=O)Nc1cccc(-c2csc(Nc3ccc(C)cn3)n2)c1", "%", 30.4],
  ["Cc1cccc(NC(=S)NC(=O)c2ccc(-c3ccccc3)cc2)n1", "%", 55.3],
  ["c1ccc2oc(-c3csc(N4CCOCC4)n3)cc2c1", "%", 51.3],
  ["Nc1nc(N)c2cc(S(=O)(=O)c3ccc4ccccc4c3)ccc2n1", "%", 72.5],
  ["CCOc1ccc(NC(=O)c2ccccn2)cc1", "%", 89.9],
  ["Cc1onc(-c2ccccc2Cl)c1C(=O)O/N=C(\\N)c1ccccc1", "%", 98.1],
  ["CCOC(=O)c1cccc(N2C(N)=NC(N)=NC2(C)C)c1", "%", 69.5],
  ["CN1CCN(c2ccc3sc(-n4ccc5ccccc54)nc3c2)CC1", "%", 64.5],
  ["CCCCCc1ccc(OCCCC[n+]2ccccc2)c(CCCCC)c1", "%", 56.7],
  ["NC(CCc1ccccc1)c1csc(NC(=O)Nc2ccccc2Oc2ccccc2)n1 (stereo unspecified)", "%", 93],
  ["CCOc1cc(NC(=O)CCl)c(OCC)cc1NC(=O)CCl", "%", 98.5]
]}
